Test system: ACHN
Test: NCI tumour cell line growth inhibition, 48 h
Calls of active or inactive are those of the source. No stated cut-off is given here; in the data, active = GI50 up to about 1.1 µM and inactive = higher.
Provide the recorded GI50 for the entries that follow.

GI50 for `O=c1[nH]cc(/N=C/c2cc(Cl)cc(Cl)c2O)c(=O)[nH]1` ? 36.3 µM (inactive)

Now the same for `O=C1c2ccccc2C(=O)c2c1ccc1c3ccccc3n(-c3ccccc3)c21` 17.3 µM (inactive)

Now the same for `C=CCc1cccc2cc(C(=O)Nc3nc(C45CC6CC(CC(C6)C4)C5)cs3)c(=O)oc12` 17 µM (inactive)

Now the same for `O=C(COc1ccc(/C=C/C(=O)c2ccc(Cl)cc2)cc1)Nc1c(Cl)cccc1Cl` > 100 µM (inactive)

Now the same for `C/C=C1\Oc2ccc(OC)cc2S1(=O)=O` > 100 µM (inactive)

###

System: SNB-19
Assay: NCI tumour cell line growth inhibition, 48 h
Active and inactive are the calls of the source. Cut-off read from the data, not from the text of the source: active = GI50 up to about 1.1 µM and inactive = higher. Where a SMILES comes first, the peptide text is derived from it. [ ]: non-standard residue; d: D form. The star is where a group is joined. Octanoyl = CCCCCCCC(=O)*; Aib = CC(C)(N)C(=O)O; tBu = CC(C)(C)*
Can you answer with just one of these options? y (active), n (inactive)

How was CC(C)(C)OC(=O)NC(Cc1ccc(OCc2ccccc2)cn1)C(=O)N1CCSCC1 (configuration not stated) classified in this test? n

Now the same for `O=S1(=O)c2ccccc2NC(=S)N1c1ccccc1` n

Now the same for `OCc1cn(Cc2ccccc2)c2ccccc12` n

Now the same for CCC(C)CN1C(=O)NC(C)(Cc2ccccc2)C1=O (configuration not stated) n

Now the same for `[N-]=[N+]=Nc1ccccc1-[n+]1noc([O-])c1Br` n

Now the same for O=C1CS(=O)(=O)C(c2cccc(Oc3ccccc3)c2)N1c1ccc(Cl)cc1 (configuration not stated) n

Now the same for CCCCC(C(=O)C(=O)Nc1ccccc1CC)C(=O)C(C)C (configuration not stated) n

Now the same for `CN1CCN([C@H]2C[C@H]3[C@@H]4CC=C5C[C@@H](O)CC[C@]5(C)[C@H]4CC[C@]3(C)C2=O)CC1` n

Now the same for `O=c1/c(=C/c2ccc(-c3ccc(Cl)cc3Cl)o2)sc2n1[C@@H](c1ccc(Cl)cc1)C=C(c1cc(F)c(Cl)cc1Cl)N=2` n

Now the same for CCCCCCCC(=O)NC(C)(C)C(=O)NC(COC(C)(C)C)C(=O)NC(CC(C)C)C(=O)NC(C)(C)C(=O)NC(COC(C)(C)C)C(=O)NC(COC(C)(C)C)C(=O)NC(CC(C)C)C(=O)NC(C)(C)C(=O)NC(COC(C)(C)C)C(=O)NC(C(=O)NC(CC(C)C)C(=O)OC)C(C)CC (configuration not stated) (Octanoyl-[Aib]S(tBu)L[Aib]S(tBu)S(tBu)L[Aib]S(tBu)IL-OMe; configuration not given here) n

Now the same for `Cc1cc(C2(c3cc(C)c(O)c4ncccc34)OC(=O)c3ccccc32)c2cccnc2c1O` y

Now the same for `c1ccc2c(-c3cnc(-c4c[nH]c5ccccc45)cn3)c[nH]c2c1` n

Now the same for CCN(CC)c1ccc(Cl)c2c1C(O)(C(C)C)C2(C)C (configuration not stated) n

Now the same for `O=c1[nH]cc(/N=C/c2cc(Cl)cc(Cl)c2O)c(=O)[nH]1` n

Now the same for `CCN(CC)C(=O)Cn1c(-c2ccccc2)cc2ccccc21` n

Now the same for `CCNc1cc2c(cc1O)CC[C@@H]1[C@@H]2CC[C@]2(C)[C@@H](O)CC[C@@H]12` y

Now the same for `COc1ccc2oc(=N)c(C(=O)Nc3cccc4ccccc34)cc2c1` n

Now the same for `CC(C)OC(=O)Nc1c([N+](=O)[O-])cc(C(F)(F)F)cc1[N+](=O)[O-]` n

Now the same for COC(=O)C1CCC(=O)N1CN(C(C)=O)c1ccccc1Cl (configuration not stated) n

Now the same for `CN(O)C(=S)c1ccccc1` n

Now the same for CCCCCCC(O)C(O)CCC(O)C1CCC(CCCCC(O)CC2=CC(C)OC2=O)O1 (configuration not stated) [ACETOGENINS] n

Now the same for `COc1cccc(NC(=O)CC(=O)NNCC(=O)Nc2nnc(-c3ccc(N(CCC#N)S(=O)(=O)c4ccccc4)cc3)s2)c1` n

Now the same for `O=C(CNc1ccccn1)Nn1cnc2ccc(S(=O)(=O)Nc3ccccn3)cc2c1=O` n

Now the same for `FC(F)(F)c1nc2cc(SSc3cc4nc(C(F)(F)F)[nH]c4cc3Cl)c(Cl)cc2[nH]1` n

Now the same for `CC(=O)O[C@@H]1C[C@@]2(C)[C@@H]3CC=C4[C@@H](C[C@H](O)C(=O)C4(C)C)[C@]3(C)C(=O)C[C@]2(C)[C@H]1[C@@](C)(O)C(=O)/C=C/C(C)(C)OC(C)=O` n

Now the same for O=C1NCC(CSc2nc3cc(C4CCCc5c4[nH]c4ccccc54)ccc3o2)N1 (configuration not stated) n

Now the same for `O=C(CO)CC(=O)C(=O)Nc1cccc(C(F)(F)F)c1` n

Now the same for `O=C(COc1ccc(/C=C/C(=O)c2ccc(Cl)cc2)cc1)Nc1c(Cl)cccc1Cl` n

Now the same for OCCSCC(O)Cn1cnc2c(O)nc(Nc3ccccc3)nc21 (configuration not stated) n

Now the same for `N=C(c1ccccc1)N(O)C1CCCCC1` n

Now the same for C/C=C1/CCC2c3[nH]c4ccccc4c3CCN2C1 (configuration not stated) n

Now the same for CN1C(=O)c2ccccc2NC(=O)C12O[C@@H]2c1ccccc1 (some centres not stated) n

Now the same for CC1C2(C)OC(=N)C(C#N)(C(c3cccc([N+](=O)[O-])c3)O2)C1(C#N)C#N (configuration not stated) n

Now the same for `COC(=O)[C@H](CCSC)NC(=O)N[C@H](C)c1ccccc1` n

Now the same for O=C1OC(c2ccccc2)=N/C1=C/NC(Cc1c[nH]cn1)C(=O)O (configuration not stated) n

Now the same for `CSc1c(C(N)=S)c(N)nn1-c1ccccc1` n

Now the same for CC[C@@]1(O)C(=O)OCc2c1cc1n(c2=O)Cc2c-1nc1ccccc1c2/C=N\NC(=O)C(N)Cc1ccc(O)cc1 (some centres not stated) y
